# ASSAY_INFO: PK of compound of Formula (Ia) after single subcutaneous dose of solution formulations in beagle dogs
# Assay type: in vivo
# ASSAY_CONDITIONS: male, beagle, dog, plasma, sc, 12 mg/kg, beagle dogs, SC 12 mg/kg, 400 mg/mL solution AA (6.25% poloxamer 188), 336 h, animals #1-#3
READOUT_KIND: concentration at 336 h

Q: Fill blank: measured concentration at 336 h of the compound `CC(C)(C#Cc1ccc(-c2ccc(Cl)c3c(NS(C)(=O)=O)nn(CC(F)(F)F)c23)c([C@H](Cc2cc(F)cc(F)c2)NC(=O)Cn2nc(C(F)(F)F)c3c2C(F)(F)[C@@H]2C[C@H]32)n1)S(C)(=O)=O` is ____.
A: 204 nM

====

# ASSAY_INFO: PK of compound of Formula (Ia) after single subcutaneous dose of solution formulations in beagle dogs
# Type: in vivo
# ASSAY_CONDITIONS: male, beagle, dog, plasma, sc, 12 mg/kg, mean ± SD, n = 3 dogs; SC 12 mg/kg; solution U, 500 mg/mL; read-out: AUC0-2352 h
READOUT_KIND: AUC(0-t)
The number alone won't do; follow it with the unit.

Q: Fill blank: measured AUC(0-t) of the compound CC(C)(C#Cc1ccc(-c2ccc(Cl)c3c(NS(C)(=O)=O)nn(CC(F)(F)F)c23)c([C@H](Cc2cc(F)cc(F)c2)NC(=O)Cn2nc(C(F)(F)F)c3c2C(F)(F)[C@@H]2C[C@H]32)n1)S(C)(=O)=O [compound of Formula (Ia)] is ____.
A: 136 µM·h

====

# ASSAY_INFO: PK of compound of Formula (Ia) after single subcutaneous dose of solution formulations in beagle dogs
# Format: in vivo
# ASSAY_CONDITIONS: male, beagle, dog, plasma, sc, 12 mg/kg, beagle dogs, SC 12 mg/kg, 400 mg/mL solution AA (6.25% poloxamer 188), 8.00 h, Mean n = 3
# Protocol: Formulations containing the compound of Formula (Ia), or a pharmaceutically acceptable salt thereof, were prepared as solutions and optionally administered subcutaneously or intramuscularly to rats, rabbits, and/or dogs. A solution of about 400 mg/mL of the compound of Formula (Ia) having 17.00 w/w % water, 36.40 w/w % PEG 300, 35.20 w/w % of a sodium salt of a compound of Formula (Ia), 5.00 w/w % ethanol, and 6.40 w/w % poloxamer 188 was prepared. […]
READOUT_KIND: concentration at 8 h (nM)
Kindly answer with a numeric value in nM, unit omitted.

Q: Fill blank: measured concentration at 8 h of the compound CC(C)(C#Cc1ccc(-c2ccc(Cl)c3c(NS(C)(=O)=O)nn(CC(F)(F)F)c23)c([C@H](Cc2cc(F)cc(F)c2)NC(=O)Cn2nc(C(F)(F)F)c3c2C(F)(F)[C@@H]2C[C@H]32)n1)S(C)(=O)=O [compound of Formula (Ia)] is ____.
A: 42.3

====

# ASSAY_INFO: PK of compound of Formula (Ia) after single subcutaneous dose of solution formulations in beagle dogs
# Format: in vivo
# ASSAY_CONDITIONS: male, beagle, dog, plasma, sc, 12 mg/kg, male beagle dogs, single SC 12 mg/kg, 400 mg/mL solution AA (6.25% poloxamer 188), mean ± SD, n = 3; read-out: AUC0-168 h
# Method: Formulations containing the compound of Formula (Ia), or a pharmaceutically acceptable salt thereof, were prepared as solutions and optionally administered subcutaneously or intramuscularly to rats, rabbits, and/or dogs. A solution of about 400 mg/mL of the compound of Formula (Ia) having 17.00 w/w % water, 36.40 w/w % PEG 300, 35.20 w/w % of a sodium salt of a compound of Formula (Ia), 5.00 w/w % ethanol, and 6.40 w/w % poloxamer 188 was prepared. […]
READOUT_KIND: AUC(0-t)
The number alone won't do; follow it with the unit.

Q: Fill blank: measured AUC(0-t) of the molecule `CC(C)(C#Cc1ccc(-c2ccc(Cl)c3c(NS(C)(=O)=O)nn(CC(F)(F)F)c23)c([C@H](Cc2cc(F)cc(F)c2)NC(=O)Cn2nc(C(F)(F)F)c3c2C(F)(F)[C@@H]2C[C@H]32)n1)S(C)(=O)=O` is ____.
A: 22.2 µM·h

====

# ASSAY_INFO: PK of compound of Formula (Ia) after single intramuscular dose of solution formulations in Wistar Han rats
# Type: in vivo
# ASSAY_CONDITIONS: male, Wistar Han, rat, plasma, intramuscular, 100 mg/kg, Solution K (~500 mg/mL, ethanol); IM 100 mg/kg; Wistar Han rats; mean, n = 4; 48.0 h; read-out: Plasma concentration, Mean
READOUT_KIND: concentration at 48 h

Q: Fill blank: measured concentration at 48 h of the molecule `CC(C)(C#Cc1ccc(-c2ccc(Cl)c3c(NS(C)(=O)=O)nn(CC(F)(F)F)c23)c([C@H](Cc2cc(F)cc(F)c2)NC(=O)Cn2nc(C(F)(F)F)c3c2C(F)(F)[C@@H]2C[C@H]32)n1)S(C)(=O)=O` is ____.
A: 376 nM

====

# ASSAY_INFO: PK of compound of Formula (Ia) after single subcutaneous dose of solution formulations in beagle dogs
# Type: in vivo
# ASSAY_CONDITIONS: male, beagle, dog, plasma, sc, 12 mg/kg, male beagle dogs, single SC 12 mg/kg, 500 mg/mL solution X (5.00% ethanol, 1.91% poloxamer 188), mean ± SD, n = 3; read-out: AUC0-1344 h
READOUT_KIND: AUC(0-t) (µM·h)
Kindly answer with a numeric value in µM·h, unit omitted.

Q: Fill blank: measured AUC(0-t) of the compound `CC(C)(C#Cc1ccc(-c2ccc(Cl)c3c(NS(C)(=O)=O)nn(CC(F)(F)F)c23)c([C@H](Cc2cc(F)cc(F)c2)NC(=O)Cn2nc(C(F)(F)F)c3c2C(F)(F)[C@@H]2C[C@H]32)n1)S(C)(=O)=O` is ____.
A: 90.8

====

# ASSAY_INFO: PK of compound of Formula (Ia) after single subcutaneous dose of solution formulations in Wistar Han rats
# Type: in vivo
# ASSAY_CONDITIONS: male, Wistar Han, rat, plasma, sc, 50 mg/kg, 3360 h; mean (rat #1 NS); SC 50 mg/kg; solution T, 400 mg/mL
READOUT_KIND: concentration at 3360 h (nM)
Kindly answer with a numeric value in nM, unit omitted.

Q: Fill blank: measured concentration at 3360 h of the compound `CC(C)(C#Cc1ccc(-c2ccc(Cl)c3c(NS(C)(=O)=O)nn(CC(F)(F)F)c23)c([C@H](Cc2cc(F)cc(F)c2)NC(=O)Cn2nc(C(F)(F)F)c3c2C(F)(F)[C@@H]2C[C@H]32)n1)S(C)(=O)=O` is ____.
A: 117

====

# ASSAY_INFO: PK of compound of Formula (Ia) after single subcutaneous dose of solution formulations in Wistar Han rats
# Format: in vivo
# ASSAY_CONDITIONS: male, Wistar Han, rat, plasma, sc, 50 mg/kg, 3696 h; mean, n = 3 rats; SC 50 mg/kg; solution S, 500 mg/mL
# Protocol: Formulations containing the compound of Formula (Ia), or a pharmaceutically acceptable salt thereof, were prepared as solutions and optionally administered subcutaneously or intramuscularly to rats, rabbits, and/or dogs. A solution of about 400 mg/mL of the compound of Formula (Ia) having 19.14 w/w % water, 40.66 w/w % PEG 300, 35.20 w/w % of a sodium salt of a compound of Formula (Ia), and 5.00% ethanol was prepared. […]
READOUT_KIND: concentration at 3696 h
The number alone won't do; follow it with the unit.

Q: Fill blank: measured concentration at 3696 h of the compound `CC(C)(C#Cc1ccc(-c2ccc(Cl)c3c(NS(C)(=O)=O)nn(CC(F)(F)F)c23)c([C@H](Cc2cc(F)cc(F)c2)NC(=O)Cn2nc(C(F)(F)F)c3c2C(F)(F)[C@@H]2C[C@H]32)n1)S(C)(=O)=O` is ____.
A: 92 nM

====

# ASSAY_INFO: PK of compound of Formula (Ia) after single subcutaneous dose of solution formulations in Wistar Han rats
# Assay type: in vivo
# ASSAY_CONDITIONS: male, Wistar Han, rat, plasma, sc, 50 mg/kg, 1.00 h; mean, n = 5 rats; SC 50 mg/kg; solution U, 500 mg/mL
# Description: Formulations containing the compound of Formula (Ia), or a pharmaceutically acceptable salt thereof, were prepared as solutions and optionally administered subcutaneously or intramuscularly to rats, rabbits, and/or dogs. A solution of about 400 mg/mL of the compound of Formula (Ia) having 19.14 w/w % water, 40.66 w/w % PEG 300, 35.20 w/w % of a sodium salt of a compound of Formula (Ia), and 5.00% ethanol was prepared. […]
READOUT_KIND: concentration at 1 h (nM)
Kindly answer with a numeric value in nM, unit omitted.

Q: Fill blank: measured concentration at 1 h of the compound `CC(C)(C#Cc1ccc(-c2ccc(Cl)c3c(NS(C)(=O)=O)nn(CC(F)(F)F)c23)c([C@H](Cc2cc(F)cc(F)c2)NC(=O)Cn2nc(C(F)(F)F)c3c2C(F)(F)[C@@H]2C[C@H]32)n1)S(C)(=O)=O` is ____.
A: 50.5
